Tested on: CCRIS mutagenicity, Ames/micronucleus/aberration tests
Test Protocol: CCRIS mutagenicity studies
Applied Conditions: Test System: AMES SALMONELLA TYPHIMURIUM; Strain/Indicator: TA100; Metabolic Activation: NONE; Method: PREINCUBATION
Excerpt: The CCRIS database contains chemical records with carcinogenicity, mutagenicity, tumor promotion, and tumor inhibition test results. It was developed by the National Cancer Institute (NCI). Data are derived from studies cited in primary journals, current awareness tools, NCI reports, and other sources. Test results have been reviewed by experts in carcinogenesis and mutagenesis. CCRIS provides historical information from the years 1985 - 2011. It is no longer updated. […]
Activity calls are given as the source filed them. How the calls were made is not given here.
// one of yes (1) = active, no (0) = inactive, no free text

molecule="Cc1oc(=O)oc1CN1CCN(c2cc3c(cc2F)c(=O)c(C(=O)O)c2n3C(C)S2)CC1 (stereo not drawn)" category_label="no (0)"
molecule=CC(C)(c1ccccc1)c1ccc(O)cc1 category_label="no (0)"
molecule=C=CC#N category_label="no (0)"
molecule=CN(Cc1cnc2nc(N)nc(N)c2n1)c1ccc(C(=O)N[C@@H](CCC(=O)O)C(=O)O)cc1 category_label="no (0)"
molecule=CC(C)(C)OO category_label="no (0)"

Q) What did the test return for N[C@@H](CSCc1ccccc1)C(=O)O ?
A) no (0)

Q) Each molecule tested received a call. Report the one for Cc1nccc2c1[nH]c1ccccc12 .
A) no (0)

Q) Could you please tell me the result logged for O=NN1CN2CN(C1)CN(N=O)C2 in this assay?
A) yes (1)

Q) Call for entry CC(C)=CCC/C(C)=C/C=C/C(C)=C/C=C/C(C)=C/C=C/C=C(C)/C=C/C=C(C)/C=C/C=C(\C)CCC=C(C)C :
A) no (0)

Q) Please let me know the test result on file for O=C(O)Cc1ccccc1[N+](=O)[O-] .
A) yes (1)

Q) Recorded call for CN1CCOCC1 ?
A) no (0)

Q) Write down the call the test reported for this molecule. Item: FC(F)(F)c1ccccc1Cl
A) no (0)

Q) Fill in: this test's call for O=C1CCCCCCCCCCCCCCO1 is ___
A) no (0)

###

System: CCRIS mutagenicity, Ames/micronucleus/aberration tests
Test Protocol: CCRIS mutagenicity studies
Applied Conditions: Test System: AMES SALMONELLA TYPHIMURIUM; Strain/Indicator: TA1535; Metabolic Activation: RAT, LIVER, S-9, AROCLOR 1254 (10%); Method: PREINCUBATION
Activity calls are given as the source filed them. No rule for the calls is given here.
Allowed answers: active, inactive

Field: example entries. Status: answers known.
compound=C=CC[Si](C)(C)C experimental_target="CCRIS mutagenicity, Ames/micronucleus/aberration tests" category_label=inactive
compound=CCNc1cc(O)ccc1C experimental_target="CCRIS mutagenicity, Ames/micronucleus/aberration tests" category_label=inactive

Q) Tell me the assay call for CCCCCC(N)=O please.
A) inactive

###

System: CCRIS mutagenicity, Ames/micronucleus/aberration tests
Test Protocol: CCRIS mutagenicity studies
Applied Conditions: Test System: AMES SALMONELLA TYPHIMURIUM; Strain/Indicator: TA1538; Metabolic Activation: NONE; Method: PREINCUBATION
Active and inactive are the calls of the source. No rule for the calls is given here.
Just give me one of these, please: TRUE = active, FALSE = inactive

Consider the worked cases shown below.
molecule=Oc1cc(O)c2cc(O)c(-c3cc(O)c(O)c(O)c3)[o+]c2c1 category_label=FALSE
molecule=CC(C)(C#N)N=NC(C)(C)C#N category_label=FALSE
molecule=O=[N+]([O-])O category_label=FALSE
molecule=O=[N+]([O-])c1ccccc1CCl category_label=FALSE
molecule=O=C1C=C(S(=O)(=O)O)c2ccccc2C1=O category_label=FALSE

Q) Dear all, I need the recorded test outcome for O=c1[nH]c(=O)n([C@H]2C[C@H](O)[C@@H](CO)O2)cc1CCCl , thank you.
A) FALSE

Q) Test call for this molecule, please: [Cl][Ti]([Cl])[Cl]
A) FALSE

Q) What is the recorded call for this molecule in the test? c1ccc2cc3ccccc3cc2c1
A) FALSE

Q) Please indicate how the test categorized [Cl][Fe]([Cl])[Cl] .
A) FALSE

Q) Recorded test outcome, item CCOP(=S)(OCC)Oc1nc(Cl)c(Cl)cc1Cl
A) FALSE

Q) Field: outcome | Entry: O=[N+]([O-])c1cccc2c([N+](=O)[O-])cccc12
A) TRUE

Q) State the result this test recorded for CC(O)CN (stereo not drawn) .
A) FALSE

Q) Outcome logged for C=CC[Si](C)(C)C in this assay:
A) FALSE

###

Tested on: CCRIS mutagenicity, Ames/micronucleus/aberration tests
Test Protocol: CCRIS mutagenicity studies
Applied Conditions: Test System: AMES SALMONELLA TYPHIMURIUM; Strain/Indicator: TA100; Metabolic Activation: RAT, LIVER, S-9, PHENOBARBITAL; Method: STANDARD PLATE
The source made the active and inactive calls. The rule behind the calls is not given here.
# output must be one of 1 for active, -1 for inactive

# count of solved cases: 2
compound=O=C(O)/C(Cl)=C(/C(=O)O)C(Cl)Cl category_label=-1
compound=Nc1ccc2c([nH]c3ccccc32)c1[N+](=O)[O-] category_label=1

Q) Per the records of this test, what outcome belongs to CC(C(=O)O)c1cccc(C(=O)c2ccccc2)c1 (stereo not given) ?
A) -1

Q) For Nc1c(N=Nc2ccc(-c3ccc(NN=C4C=CC(=O)C=C4)cc3)cc2)c(S(=O)(=O)O)cc2c1C(=O)/C(=N/Nc1ccccc1)C(S(=O)(=O)O)=C2 , what call appears in the results of this test?
A) -1

Q) GET /call?item= c1ccc2cc3c(ccc4ccccc43)cc2c1 returns the recorded outcome of this test.
A) -1

Q) Test call for this compound, please: Nc1c(N=Nc2ccc(-c3ccc(N=Nc4cc(S(=O)(=O)O)c5ccccc5c4N)cc3)cc2)cc(S(=O)(=O)O)c2ccccc12
A) -1

Q) Short answer needed: outcome of this test for COc1ccc2c(OC)c3ccoc3nc2c1 ?
A) 1

Q) Assay result, entry c1cncc(-c2cccnc2)c1 — outcome?
A) 1

Q) Tell me the recorded outcome of this test for O=P(OC(CCl)CCl)(OC(CCl)CCl)OC(CCl)CCl .
A) 1

Q) Hi, sorry to bother you, what did the test record for NC(CO)C(=O)NNCc1ccc(O)c(O)c1O (stereo not given) ?
A) 1

###

Tested on: CCRIS mutagenicity, Ames/micronucleus/aberration tests
Test Protocol: CCRIS mutagenicity studies
Applied Conditions: Test System: AMES SALMONELLA TYPHIMURIUM; Strain/Indicator: TA98; Metabolic Activation: NONE; Method: STANDARD PLATE
Activity calls are given as the source filed them. How the calls were made is not given here.
Your reply should match one of these outcome classes. t (active), f (inactive)

molecule=Cl/C=C(\Cl)c1c(Cl)c(Cl)c(Cl)c(Cl)c1Cl category_label=f
molecule=C=C(C)C(=O)OCC(C)(C)COC(=O)C(=C)C category_label=f
molecule=O=C1c2cccc(O)c2C(=O)c2cccc(O)c21 category_label=t
molecule="C1=CC2OC2C=C1 (stereo not given)" category_label=f
molecule=C[C@]12CCC(=O)C=C1[C@@H]1C[C@@H]1[C@H]1[C@@H]3[C@@H]4C[C@@H]4[C@@]4(CCC(=O)O4)[C@@]3(C)CC[C@@H]12 category_label=f
molecule=Cc1c(N(C)CS(=O)(=O)O)c(=O)n(-c2ccccc2)n1C category_label=f
molecule=O=c1c2ccccc2[se]n1-c1ccccc1 category_label=f
molecule=c1ccc2c(c1)CCCC2 category_label=f

Q) For this molecule, state the assay outcome: Cc1cc(C)c(C)cc1C
A) f

Q) Per the assay record, what outcome was assigned to O=C1c2c(O)ccc3c2[C@H](c2ccc(O)c4c2[C@H]3[C@H]2O[C@H]2C4=O)[C@H]2O[C@@H]12 ?
A) t

Q) Given CCn1cc(C(=O)O)c(=O)c2cc(F)c(N3CCNC(C)C3)c(F)c21 (stereo not given) , state the outcome it received in this test.
A) f

Q) Query: recorded result category for Nc1ncnc2c1ncn2[C@@H]1O[C@H](CO)C[C@H]1O in this test
A) t

Q) Check the results log: what was the call for ClC(Cl)=C(c1ccc(Cl)cc1)c1ccc(Cl)cc1 ?
A) f

Q) // param item: O=Nc1ccc(Sc2ccccc2)cc1 ; yields the recorded call
A) t

###

Tested on: CCRIS mutagenicity, Ames/micronucleus/aberration tests
Test Protocol: CCRIS mutagenicity studies
Applied Conditions: Test System: AMES SALMONELLA TYPHIMURIUM; Strain/Indicator: TA1538; Metabolic Activation: RAT, LIVER, S-9, AROCLOR 1254; Method: STANDARD PLATE
Active and inactive are the calls of the source. The rule behind the calls is not given here.
Answer with one of the outcomes given here: active, inactive

compound=C=CCc1ccc(O)c(O)c1 category_label=inactive
compound=CN(C)c1ccc(N=Nc2cccnc2)cc1 category_label=inactive
compound=CCCOc1cc(N=Nc2ccc(N(CCO)CCO)cc2)ccc1N=Nc1c(S(=O)(=O)O)cc2ccc(N)cc2c1O category_label=active
compound=C=C(C)C(=O)OCCCCOC(=O)C(=C)C category_label=inactive
compound=CCOCCc1c(-c2ccccc2)nc(N)n2ncnc12 category_label=inactive

Q) Query: recorded result category for C[C@]12CCC(=O)C=C1[C@@H]1C[C@@H]1[C@H]1[C@@H]3[C@@H]4C[C@@H]4[C@@]4(CCC(=O)O4)[C@@]3(C)CC[C@@H]12 in this test
A) inactive

Q) Which outcome was entered for the compound CCC/C=N/O in this test?
A) inactive

Q) Each compound tested received a call. Report the one for Cc1ccc2nc(-c3ccc(N)cc3)sc2c1 .
A) active

Q) Status in this test for C[C@]12CC[C@@H]3c4ccc(O)cc4CC[C@H]3[C@@]13CC[C@]2(O)[C@H](O)C3 ?
A) inactive

Q) I'd appreciate the recorded outcome for O=[N+]([O-])C1=Cc2ccc3ccc4cccc5cc1c2c3c45 from this test.
A) active

Q) Just curious, what result did O=[N+]([O-])c1ccccc1C(F)(F)F get here?
A) inactive

Data credit: PubChem BioAssay AID1259407
